assay method text: small-molecule binders of probe aInhba, primary screen, biochemical, small-molecule microarray, 635/667 nm fluorescence (AID 1148);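 note: score merges 667nm spot fluorescence with signal-to-noise for antibody binding to printed compounds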
assay setup: higher = more signal
Readings of composite z-score for the listed molecules
// keep it numeric: no unit symbol after the value

Provide one value: measured composite z-score of C=C(COC)C(=O)CC[C@@H](OC(=O)c1cccnc1)c1cccc(OCCO)c1
-0.127

Provide one value: measured composite z-score of CC(C)=CCN(C(=O)C#Cc1ccccc1)[C@H](CO)c1ccccc1
-0.15

Provide one value: measured composite z-score of COc1ccc([Si](C)(C)[C@@H]2[C@@H](CC(=O)N(CCO)Cc3ccccc3)O[C@]3(C(=O)N(Cc4ccc(N5CCC5=O)cc4)c4ccccc43)[C@H]2C)cc1
-0.318

Provide one value: measured composite z-score of COc1cccc(OC)c1C(=O)O[C@H]1[C@@H]2OC(=O)[C@H](Cc3cccc(Br)c3)C/C=C/C[C@@H](Cc3cccc(Br)c3)C(=O)O[C@H]2[C@@H](OC)O[C@@H]1CO
-0.128

Provide one value: measured composite z-score of COC(=O)[C@@]1(Cc2ccc(F)cc2)[C@H]2c3cc(C(=O)N(C)C)n(CCO)c3C[C@H]2CN1C(=O)c1ccccc1
0.0464

Provide one value: measured composite z-score of COc1ccc(CCNC(=O)[C@@]2(Sc3ccc(C)cc3)CC(=O)N(Cc3cc(C(F)(F)F)cc(C(F)(F)F)c3)[C@@H]2c2ccc(CO)cc2)cc1
-0.127

Provide one value: measured composite z-score of C=C(COC)/C(=C/C[C@@H](OC(C)=O)c1ccccc1OCCO)c1cc(C(=O)OC)ccc1OC
-0.188

Provide one value: measured composite z-score of Cc1ccc(F)cc1S(=O)(=O)N[C@@H]1CCN(Cc2ccc3c(c2)OCO3)C1
-0.128

Provide one value: measured composite z-score of CN1C(=O)[C@]2(CCS(=O)(=O)c3ccccc3)N=C(c3ccc(OCCCO)cc3)O[C@@H]2c2ccccc21
0.174

Provide one value: measured composite z-score of COc1cc2c(cc1O)C(c1ccc(CN3CCCC3)cc1)N(Cc1ccc([N+](=O)[O-])o1)CC2 (stereo unspecified)
-0.105

Provide one value: measured composite z-score of C=C(CCCC)C(=O)CC[C@H](OC(=O)c1cccnc1)c1ccc(CO)o1
0.212

Provide one value: measured composite z-score of O=C1NC(=O)C2C1C=CC(C(O)c1ccc(F)cc1)N2Nc1ccccn1 (stereo unspecified)
-0.0645

Provide one value: measured composite z-score of C#CCN(C/C=C/c1ccccc1)[C@H](CO[Si](C)(C)C(C)(C)C)c1ccccc1
-0.0719

Provide one value: measured composite z-score of COCCCNC(=O)[C@@H]1c2ccccc2C(=O)N(C2CCCCC2)[C@H]1c1ccc(CO)cc1
-0.0963

Provide one value: measured composite z-score of C#CCN([C@H](/C=C/C1CC1)[C@@H](O)Cc1ccccc1)[C@@H](Cc1ccccc1)C(=O)OC
0.0013

Provide one value: measured composite z-score of COCCOC(=O)N1C(=O)[C@@]2(c3cc(C#CCCO)ccc31)[C@H](C(=O)N1CCc3cc(OC)c(OC)cc3C1)[C@H]1C(=O)O[C@H](c3ccccc3)[C@H](c3ccccc3)N1[C@@H]2c1ccccc1OCCO
0.425

---

assay method text: yeast growth modulation, basal conditions, primary screen, YJM789 clinical isolate, OD600, 24 h (AID 1089);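 note: growth of clinical yeast isolate S. cerevisiae YJM 789 seeded 1000 cells per well; test concentration not given here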
assay setup: S. cerevisiae YJM789 growth, higher = more signal, called active from +8 up or from −8 down
Activity calls are given as the source filed them.
Readings of z-score for the listed molecules

>  <molecule>
[N-]=[N+]=NCc1ccccc1C[C@]1(C(=O)NCc2ccccc2)N=C(c2ccc(OCCCO)cc2)O[C@H]1c1ccccc1CN=[N+]=[N-]

>  <measurement label>
z-score

>  <reported result>
1.27 (inactive)

$$$$
>  <molecule>
COCCOC(=O)N1C(=O)[C@@]2(c3cc(C#CC4(O)CCCCCC4)ccc31)[C@H](C(=O)NC[C@H](O)c1ccccc1)[C@H]1C(=O)O[C@H](c3ccccc3)[C@H](c3ccccc3)N1[C@@H]2c1ccc(O)cc1

>  <measurement label>
z-score

>  <reported result>
0.295 (inactive)

$$$$
>  <molecule>
O=C1O[C@@H](c2ccccc2)[C@@H](c2ccccc2)N2[C@@H](c3ccc(O)cc3)[C@]3(C(=O)Nc4ccc(C#CC5=CCCCC5)cc43)[C@@H](C(=O)N3CCCCCCC3)[C@H]12

>  <measurement label>
z-score

>  <reported result>
-1.67 (inactive)

$$$$
>  <molecule>
CCCCC(O)C1C=CC2C(=O)NC(=O)C2N1Nc1ccccn1 (stereo not given)

>  <measurement label>
z-score

>  <reported result>
0.374 (inactive)

$$$$
>  <molecule>
CC=CC(O)C1C=CC2C(=O)N(C)C(=O)C2N1NC(=O)OC(C)(C)C (stereo not given)

>  <measurement label>
z-score

>  <reported result>
-0.219 (inactive)

$$$$

Provide one value: measured z-score of CC(C)C(=C=CC[C@@H](O)c1cccc(OCCO)c1)CCO
0.493 (inactive)

Provide one value: measured z-score of CC(C)[Si](C#CCCCC#N)(O[C@H](c1ccccc1)c1cn([C@H](C)c2ccccc2)nn1)C(C)C
-0.766 (inactive)

Provide one value: measured z-score of COC(=O)[C@]1(CO)N=C(c2ccc(OCCCO)cc2)O[C@@H]1c1ccccc1CN=[N+]=[N-]
0.11 (inactive)

Provide one value: measured z-score of [N-]=[N+]=NCc1ccccc1C[C@@]1(C(=O)O)N=C(c2ccc(OCCCO)cc2)O[C@@H]1c1ccccc1CN=[N+]=[N-]
-1.5 (inactive)

---

target desc: Torsin-1A (Homo sapiens) (UniProt O14656)
Sequence (O14656 whole entry, looked up): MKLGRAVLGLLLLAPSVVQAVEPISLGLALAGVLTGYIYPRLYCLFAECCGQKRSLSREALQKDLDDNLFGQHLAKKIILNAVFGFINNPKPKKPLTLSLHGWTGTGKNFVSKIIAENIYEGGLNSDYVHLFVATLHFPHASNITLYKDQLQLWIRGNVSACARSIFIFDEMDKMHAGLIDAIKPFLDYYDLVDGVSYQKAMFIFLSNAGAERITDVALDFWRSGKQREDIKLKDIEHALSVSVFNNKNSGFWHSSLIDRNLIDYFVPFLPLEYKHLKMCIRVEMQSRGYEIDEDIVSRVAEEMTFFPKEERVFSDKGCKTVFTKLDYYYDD
assay method text: small-molecule binders of mutant TOR1A in lysate, primary screen, cell lysate, small-molecule microarray, COS7 lysate, 635/667 nm fluorescence (AID 1150);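 note: score pools 667 nm emission and signal to noise measuring lysate protein binding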
assay setup: COS7 hTOR1A mutant lysate, 635 nm fluorescence, higher = more signal
Readings of composite z-score for the listed molecules

Example cases with answers are listed next.
>  <molecule>
CO[C@H]1O[C@H](CO)[C@@H](OC(=O)Nc2ccc(C(F)(F)F)cc2)[C@H](OC(=O)Nc2ccccc2-c2ccccc2)[C@@H]1OC(=O)Nc1ccccc1-c1ccccc1

>  <composite z-score>
0.979

$$$$
>  <molecule>
COC(=O)[C@@]1(Cc2ccccc2)[C@H]2c3cc(C(=O)N4CCCC4)n(Cc4ccc(C(F)(F)F)nc4)c3C[C@H]2CN1C(=O)c1ccccc1

>  <composite z-score>
0.774

$$$$
>  <molecule>
C=CCC(OC(C)=O)[C@@H]1[C@@H](N(Cc2ccc(-c3ccccc3)cc2)C(=O)c2cccc3ccccc23)c2cc(OCCCO)ccc2N1C(=O)c1ccc2ccccc2c1 (stereo partly specified)

>  <composite z-score>
0.0249

$$$$

Provide one value: measured composite z-score of CCOC(=O)C[C@H]1[C@H](OC(=O)c2cc3ccccc3oc2=O)[C@@H](NC(=O)C2CCCCC2)c2cc(OCCCO)ccc2N1C(=O)Cc1ccc(OC)cc1
0.384

Provide one value: measured composite z-score of C=C(COC)C(=O)CC[C@@H](OC(=O)c1cccnc1)c1cccc(OCCO)c1
0.778

Provide one value: measured composite z-score of COCCOC(=O)N1C(=O)[C@@]2(c3ccccc31)[C@H](C(=O)N1CCCCCCC1)[C@H]1C(=O)O[C@H](c3ccccc3)[C@H](c3ccccc3)N1[C@@H]2c1ccc(O)cc1
2.57

---

System: Human papillomavirus type 1a E7 protein (residues 1-88)
assay method text: HPV1a E7 small-molecule binders, primary screen, biochemical, small-molecule microarray, residues 1-88, 635 nm (AID 1129)
assay setup: small-molecule microarray binding, fluorescence 635 nm; higher = more signal
Readings of composite z-score for the listed compounds
// keep it numeric: no unit symbol after the value

>  <compound>
O=C1C2C=CC(C(O)c3cccc(O)c3)N(Nc3ccccc3F)C2C(=O)N1c1ccccc1 (stereo not drawn)

>  <reported result>
0.137

$$$$

Provide one value: measured composite z-score of C=CCNC(=O)[C@@H]1[C@H]2C(=O)O[C@H](c3ccccc3)[C@H](c3ccccc3)N2[C@H](c2ccc(O)cc2)[C@@]12C(=O)Nc1ccc(C#CC3(O)CCCCCC3)cc12
0.596

Provide one value: measured composite z-score of C=C(CC1([C@@H](NP(=O)(c2ccccc2)c2ccccc2)[C@H]2C[C@@H]2CCN(C(=O)OCC)S(=O)(=O)c2ccc(C)cc2)CC1)c1ccccc1
1.22

Provide one value: measured composite z-score of COc1cccc(OC)c1C(=O)O[C@H]1[C@@H]2OC(=O)[C@H](Cc3cccc(Br)c3)C/C=C/C[C@@H](Cc3cccc(Br)c3)C(=O)O[C@H]2[C@@H](OC)O[C@@H]1CO
1.1

Provide one value: measured composite z-score of CC(C)C[C@H]1NC(=O)[C@@]23C(=O)N[C@@H](Cc4ccccc4)C2[C@H](C)[C@@]2(C)O[C@H]2C3/C=C/C/C=C\CNC(=O)[C@@H]2CCCN2C1=O (stereo partly drawn)
-0.0447

Provide one value: measured composite z-score of C=CCC(OC(C)=O)[C@@H]1[C@@H](N(Cc2ccc(-c3cccc(C(F)(F)F)c3)o2)C(=O)c2cccc3ccccc23)c2cc(OCCCO)ccc2N1C(=O)c1ccc2ccccc2c1 (stereo partly drawn)
-0.582
